Reference for the values: PubChem BioAssay (NCI)

# assay.remarks: NCI Yeast Anticancer Drug Screen. Data for the mlh1 rad18 strain (AID 175)
# condition.parameters: S. cerevisiae mlh1 rad18 strain growth inhibition; at 50.0 µM; stronger effect = higher value
Compounds without any hit were thinned out: in the full panel of roughly 79,000, 15% have a hit.
observation.type: growth inhibition (%)
Numeric only. Scale: %

// below: answered molecules
CC(=O)Nc1ccc(/C=C(\NC(=O)c2ccccc2)C(=O)NNS(=O)(=O)c2ccc(C)cc2)cc1 : 21.4
CS(=O)(=O)N(CCC#N)c1ccc(/C=N/NC(=O)CC(=O)Nc2cccc(Cl)c2)cc1 : 8.65
CN(C)CC(O)C(=O)O (configuration not stated) : -13.8
O=C1CCCCCC1 : 3.4
O=C(C=c1sc(=CC(=O)c2ccccc2)s1)c1ccccc1 : -35.6

Reported growth inhibition ( `COc1ccc2nc(-c3ccccc3)cc(OCC(=O)O)c2c1` ) = -15.8

Reported growth inhibition ( `CC(=O)Nc1c(Cl)c(Cl)c2c(c1Cl)Cc1cc([N+](=O)[O-])ccc1-2` ) = 2.1

Reported growth inhibition ( `CC(C)(CO)CN1CCCC1` ) = 0.8

Reported growth inhibition ( CC1C2CC(CC2O)C1(C)C (configuration not stated) ) = 15.9

Reported growth inhibition ( CC(C(=O)c1ccc(Cl)cc1)C1=NC2NN(c3ccccc3)C(=O)C2=C1C(C)C(=O)c1ccc(Cl)cc1 (configuration not stated) ) = 3.25

Reported growth inhibition ( CC(O)C(NC(=O)Nc1ncnc2nc[nH]c12)C(=O)O (configuration not stated) ) = 16.9

Reported growth inhibition ( `O=S1c2ccccc2Sc2ccccc21` ) = -2.25

###

# assay.remarks: NCI Yeast Anticancer Drug Screen. Data for the sgs1 mgt1 strain (AID 161);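 also: 0% = growth of cultures given vehicle only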
# condition.parameters: S. cerevisiae sgs1 mgt1 strain, at 50.0 µM, stronger effect = higher value
The panel holds about 79,000 compounds, 15% with a hit somewhere; the sample as a whole holds those more often.
observation.type: growth inhibition (%)
Numeric only. Scale: %

// below: answered compounds
O/N=C1\CC2CC1C1CC3(CC3)C21 (configuration not stated) : -0.15
C1=N/C=C\C=C/c2ccc[n+](CCCCC[n+]3ccccc3-c3ccccn3)c21 : 86.8
CCCOc1nc(N)c2cnn(C3CCCCO3)c2n1 (configuration not stated) : 8.05
COc1cc(C=O)cc(Br)c1O : 34.1
COC1(NS(=O)(=O)c2ccc(C)cc2)CC1 : -12.1

Reported growth inhibition ( `CC12CC3CC(C1)CC(NCCO)(C3)C2` ) = -14.3

Reported growth inhibition ( `CN(C)Cc1cc(C(=O)/C=C/c2ccc(Cl)cc2)cc(CN(C)C)c1O` ) = -20.9

Reported growth inhibition ( OC(c1ccccc1)(C1CCNCC1)C1CC1 (configuration not stated) ) = -4

Reported growth inhibition ( `CCCCCCCCSc1nc(Nc2cc(C(C)(C)C)c(O)c(C(C)(C)C)c2)nc(SCCCCCCCC)n1` ) = 13.1

###

# assay.remarks: NCI Yeast Anticancer Drug Screen. Data for the cln2 rad14 strain (AID 165);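 also: 0% = growth equal to vehicle treated cultures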
# condition.parameters: S. cerevisiae cln2 rad14 strain, at 50.0 µM, stronger effect = higher value
# Procedure: Growth inhibition of yeast strains with defined genetic alterations is measured as a screen for potential anti-cancer activity. Selected strains with alterations in DNA damage repair or cell cycle control were exposed to compounds and growth inhibition was measured relative to vehicle treated controls. The strain used in this assay is cln2 rad14
Compounds without any hit were thinned out: in the full panel of roughly 79,000, 15% have a hit.
observation.type: growth inhibition (%)
Numeric only. Scale: %

// below: answered molecules
CO/C(=N\N=C\c1ccccc1F)c1ccncc1 : 1.7
[O-]C(=N/C(=N/[n+]1ccccc1)c1ccccc1)c1ccccc1 : -9
O=P(c1ccccc1)(c1ccccc1)c1ccccc1OCCCO : 24.8
CCOC(=O)/C(C=Nc1c(C)n(C)n(-c2ccccc2)c1=O)=C(/C)O : 27.5
C[C@]12CCC(=O)C(O)=C1CCC2=O : -14.9

Reported growth inhibition ( `Oc1ccc(-c2nc(-c3cccnc3)c(-c3ccc(Cl)cc3)[nH]2)cc1` ) = 12.8
